# Tested on: Ishikawa
# METHOD: Inhibition of estradiol-induced proliferation in human Ishikawa cells after 72 hrs by Cell-titer-Glo assay
# Assay type: functional, cell-based
PROPERTY_MEASURED: IC50 (mg/L)
Answers are plain numbers, in mg/L.

COMPOUND: Cl.O=C(c1ccc(OCCN2CCCCC2)cc1)c1c(-c2ccc(O)cc2)sc2cc(O)ccc12 [RALOXIFENE HYDROCHLORIDE]
UNIT_STRING: mg/L
IC50: 10.5

COMPOUND: COc1ccc(C#CC(=O)c2cc(Cl)cc(Cl)c2O)cc1OC
UNIT_STRING: mg/L
IC50: 5.85

For reference, reported IC50 for `COc1ccc(C#CC(=O)c2cc(C)cc([N+](=O)[O-])c2O)cc1OC` stands at 1.43
